Literature survey of IC50 (system: Gastrin/cholecystokinin type B receptor (Rattus norvegicus, UniProt P30553)).
Sequence (P30553 whole entry): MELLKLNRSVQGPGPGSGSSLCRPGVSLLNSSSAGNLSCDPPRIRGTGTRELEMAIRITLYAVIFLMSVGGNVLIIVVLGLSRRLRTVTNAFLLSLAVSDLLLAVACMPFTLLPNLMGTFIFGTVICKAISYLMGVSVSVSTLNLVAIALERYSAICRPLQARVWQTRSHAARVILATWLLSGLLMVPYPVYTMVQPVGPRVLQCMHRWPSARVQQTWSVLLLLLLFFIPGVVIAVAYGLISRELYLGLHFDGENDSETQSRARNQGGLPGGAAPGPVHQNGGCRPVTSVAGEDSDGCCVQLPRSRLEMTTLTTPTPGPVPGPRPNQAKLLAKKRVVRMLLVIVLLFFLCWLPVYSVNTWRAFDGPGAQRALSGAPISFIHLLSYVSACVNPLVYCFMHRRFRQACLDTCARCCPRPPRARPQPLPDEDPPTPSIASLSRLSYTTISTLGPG

O=C(Cc1c[nH]c2ccccc12)N[C@@H](Cc1ccccc1)C(=O)N(CCC1CCCCC1)CC(=O)N1CCC[C@H]1C(=O)O :: 0.94 nM
CC(C)(C)OC(=O)N[C@@H](Cc1c[nH]c2ccccc12)[C@H](C#N)N[C@@H]1CCCN2C(=O)N(Cc3ccccc3)C(=O)CC12 (single isomer, unassigned) :: > 10000 nM
CCCC[C@H](NC(=O)Cc1c[nH]c2ccccc12)C(=O)N(CCC1CCCCC1)CC(=O)O :: 370 nM

Provide IC50 values for the following items, in order.
1. CC(C)(C)OC(=O)N1c2ccccc2C[C@@H]1C(=O)N1[C@@H](C(=O)N2CCc3ccccc3C2)CC[C@H]1c1ccccc1
2. O=C(N[C@@H](Cc1c[nH]c2ccccc12)C(=O)N[C@H]1CCCN2C(=O)N(Cc3ccccc3)C(=O)CC12)OC1C2CC3CC(C2)CC1C3 (single isomer, unassigned)
3. CCCCCCN(CCCCCC)C(=S)Cc1c(-c2ccc(F)cc2)[nH]c2ccccc12
4. CC1=CC2C/C=C/C=C/CC(O)C/C=C/CC(C)C3C(CSC3C(=O)C(=O)O)C(=O)C3=C(O)C2(CC1C)OC3=O (stereo not drawn)
5. CCCCCCN(CCCCCC)C(=O)Cc1c(-c2ccc(Cl)cc2)[nH]c2ccc(Cl)cc12

1: 52 nM; 2: 3430 nM; 3: > 1000 nM; 4: 3.6 nM; 5: > 1000 nM
